# Tested on: Plasmodium falciparum
# MEASUREMENT_NOTES: Confirmatory screen in NF54 pLDH assay, in single point, at 2uM, 72h
# Assay type: functional, Erythrocyte
# TEST_CONTEXT: timepoint 72 hour
In all, about 4,800 compounds went through this assay and about 410 (8.5%) showed an effect of 50% or more. Many of the other results were omitted from the sample, so strong results are more common in it than they were.
PARAMETER: % Inhibition (%)

>>> test_result("CCCC(=O)N1CCC(OC(=O)c2cnc3ccc(F)cc3c2)CC1")
-10
>>> test_result("COc1cc(N2CCn3c(nc4cc(Cl)ccc43)C2)ccc1NC(=O)C1CCCCC1")
-13
>>> test_result("COc1cccc(NC(=O)Cn2c(C)ccc(NS(=O)(=O)c3ccc(C)cc3)c2=O)c1")
59
>>> test_result("CCCN(CC(=O)O)S(=O)(=O)c1cccc(C)c1Br")
-23
>>> test_result("CCN(CCN(C)C)C(=O)c1cccc(-c2ccc3nccc(N)c3c2)c1")
96
